B1: library; a variant is named by its letters at N, in order (parent)
chain: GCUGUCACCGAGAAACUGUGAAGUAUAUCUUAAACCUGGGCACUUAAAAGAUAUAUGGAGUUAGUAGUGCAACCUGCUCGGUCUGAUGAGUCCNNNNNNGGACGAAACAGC

Variants of: B1
Assay: normalized RNA/DNA level without ligand (relative to sTRSVctl = 100) (log10 (% of sTRSVctl)); HEK293T; ligand: cyclic di-GMP (c-di-GMP-II aptamer); higher = less ribozyme self-cleavage, higher mRNA level
Details: reporter: mCherry (pCS4076), ligand present: no
assay-metric: normalized RNA/DNA level without ligand (log10)
Give the figure by itself; no unit, no explanation.

Here's what some known entries look like.
normalized RNA/DNA level without ligand (log10) lookup needed for AAGGAC , thanks.
1.53

Try the variant CGCUCG
1.77

Moving on to the next variant: AGUCGC
1.73

What do you have for UCACGC ?
1.7

Subsequent entry: ACCGGC
1.78

New cases:
Quick one: normalized RNA/DNA level without ligand (log10) of GCUAGG ?
1.54

Subsequent entry: GUCGCC
1.77

Okay, and AAGGCG ?
1.73

Now consider UGCGCG and answer again.
1.82

Ok, now GCAUUC
1.42
